system: T47D; assay: Growth inhibition of human T47D cells after 48 hrs; assay type: functional
MEASURE: GI50 (nM)
Supply the numeric figure in nM, leaving out any unit text.

- CPD_SMILES: "COc1cc2c(c(OC)c1OC)-c1ccc(OC)c(=O)cc1[C@@H](NC(C)=O)CC2"
  REPORTED_RESULT: 140
- CPD_SMILES: "OCc1cc(Cl)ccc1-c1noc(-c2occc2Br)n1"
  REPORTED_RESULT: 500
- CPD_SMILES: "Cc1cc(Cl)ccc1-c1noc(-c2occc2Br)n1"
  REPORTED_RESULT: 130
- CPD_SMILES: "Cc1cc(Cl)cnc1-c1noc(-c2occc2Br)n1"
  REPORTED_RESULT: 660
- CPD_SMILES: "CC(=O)O[C@H]1C(=O)[C@@]2(C)[C@H]([C@H](OC(=O)c3ccccc3)[C@]3(O)C[C@H](OC(=O)[C@H](O)[C@@H](NC(=O)c4ccccc4)c4ccccc4)C(C)=C1C3(C)C)[C@]1(OC(C)=O)CO[C@@H]1C[C@@H]2O"
  REPORTED_RESULT: 26

Now for the molecule whose GI50 we want.
input: Item: Clc1ccc(-c2noc(-c3sccc3Cl)n2)cc1 Test system: T47D Read-out: GI50 Value: ?
output: 190

----------
assay: Aqueous solubility in dextrose 5% in water; assay type: physicochemical
MEASURE: solubility (µg/mL)
Supply the numeric figure in µg/mL, leaving out any unit text.

input: Please report the recorded solubility for O=P([O-])([O-])OCc1cc(Cl)ccc1-c1noc(-c2occc2Br)n1.[Na+].[Na+] .
output: 10000

----------
Item-by-item account of EC50
system: T47D; test: Induction of apoptosis in human T47D cells assessed as caspase activation after 48 hrs; type: functional, cell-based
Supply the numeric figure in µM, leaving out any unit text.

Solved cases (5 shown):
- CPD_SMILES: "Nc1cc(-c2noc(-c3sccc3Cl)n2)ccc1Cl"
  EC50 (µM): 2.4
- CPD_SMILES: "OCc1cc(Cl)ccc1-c1noc(-c2occc2Br)n1"
  EC50 (µM): 2.9
- CPD_SMILES: "Clc1ccc(-c2noc(-c3sccc3Cl)n2)cc1"
  EC50 (µM): 1.2
- CPD_SMILES: "Cc1cc(-c2noc(-c3sccc3Cl)n2)ccc1Cl"
  EC50 (µM): 1.7
- CPD_SMILES: "Cc1cc(Cl)ccc1-c1noc(-c2sccc2Cl)n1"
  EC50 (µM): 0.91

input: Please report the recorded EC50 for Clc1ccc(-c2noc(-c3sccc3Cl)n2)cc1Cl .
output: 1.4

input: Please report the recorded EC50 for Cc1cc(Cl)ccc1-c1noc(-c2occc2Br)n1 .
output: 1.1

----------
test system: T47D; assay: Induction of apoptosis in human T47D cells assessed as caspase activation after 48 hrs; format: functional, cell-based
Mark y only when EC50 stays strictly below 2000 nM. Values equal to the cut-off are n.

Below are worked cases with known answers.
- CPD_SMILES: "Clc1ccc(-c2noc(-c3sccc3Cl)n2)c(CBr)c1"
  GROUP_LABEL: "n"
- CPD_SMILES: "Nc1cc(Cl)ccc1-c1noc(-c2sccc2Cl)n1"
  GROUP_LABEL: "n"
- CPD_SMILES: "Clc1ccc(-c2noc(-c3occc3Br)n2)c(CBr)c1"
  GROUP_LABEL: "n"

input: Report whether reported EC50 is lower than 2000 nM (strictly) for O=P(O)(O)OCc1cc(Cl)ccc1-c1noc(-c2occc2Br)n1
output: n

input: Report whether reported EC50 is lower than 2000 nM (strictly) for Cc1cc(Cl)cnc1-c1noc(-c2occc2Br)n1
output: y

input: Report whether reported EC50 is lower than 2000 nM (strictly) for CN(C)c1cc(-c2noc(-c3sccc3Cl)n2)ccc1Cl
output: n
